Values compiled from the Bradley open melting point set (2014).

Catalogue of compounds with associated melting point
measured.endpoint: melting point (°C)

- compound: "NC(=O)c1ccc(C=O)cc1 [p-formyl_benzamide]"
  measured.endpoint: "melting point"
  units.label: "°C"
  quantitative.result: 75
- compound: "CC(=O)NS(=O)(=O)c1ccc(N)cc1 [sulfacetamide]"
  measured.endpoint: "melting point"
  units.label: "°C"
  quantitative.result: 182
- compound: "C=CC(=O)OCC(CC)CCCC (stereo not given) [2-ethylhexyl acrylate]"
  measured.endpoint: "melting point"
  units.label: "°C"
  quantitative.result: -90
- compound: "C=Cc1ccc(C#N)cc1"
  measured.endpoint: "melting point"
  units.label: "°C"
  quantitative.result: -15
- compound: "Cc1cccc(Nc2ccncc2S(=O)(=O)NC(=O)NC(C)C)c1 [Torasemide]"
  measured.endpoint: "melting point"
  units.label: "°C"
  quantitative.result: 164

* * *

- molecule: "Cn1c(=O)c2c(ncn2C)n(C)c1=O [1,3,7-Trimethyl-3,7-dihydro-1H-purine-2,6-dione]"
  melting point, °C: 237
- molecule: "CCC(=O)O [Propionic acid]"
  melting point, °C: -20.8
- molecule: "CCOS(=O)(=O)c1ccc(C)cc1 [ethyl_p-toluenesulfonate]"
  melting point, °C: 34

* * *

Where a name gives a salt, the structure may show the parent alone.
measured.endpoint: melting point (°C)

- molecule: "CC(C)OC=O [isopropyl formate]"
  measured.endpoint: "melting point"
  units.label: "°C"
  quantitative.result: -93
- molecule: "Nc1ccc(C(=O)O)c(O)c1 [p-aminosalicylic acid]"
  measured.endpoint: "melting point"
  units.label: "°C"
  quantitative.result: 150
- molecule: "O=C(NC(C(=O)O)c1ccccc1)OCC(Cl)(Cl)Cl (stereo not given) [Phenyl{[(2,2,2-trichloroethoxy)carbonyl]amino}acetic acid]"
  measured.endpoint: "melting point"
  units.label: "°C"
  quantitative.result: 142
- molecule: "CC(C)(Oc1ccc(CCNC(=O)c2ccc(Cl)cc2)cc1)C(=O)O [bezafibrate]"
  measured.endpoint: "melting point"
  units.label: "°C"
  quantitative.result: 186
- molecule: "C=CCCC [1-pentene]"
  measured.endpoint: "melting point"
  units.label: "°C"
  quantitative.result: -162
- molecule: "OB(O)c1cccc(F)c1"
  measured.endpoint: "melting point"
  units.label: "°C"
  quantitative.result: 214
- molecule: "O=C(O)C(O)[C@H](O)C(=O)O (stereo in doubt)"
  measured.endpoint: "melting point"
  units.label: "°C"
  quantitative.result: 169
- molecule: "N#Cc1ccc([N+](=O)[O-])cc1"
  measured.endpoint: "melting point"
  units.label: "°C"
  quantitative.result: 149
- molecule: "NC(CN(Cc1ccccc1)c1ccccc1)=NO"
  measured.endpoint: "melting point"
  units.label: "°C"
  quantitative.result: 107
- molecule: "Oc1cccc(I)c1"
  measured.endpoint: "melting point"
  units.label: "°C"
  quantitative.result: 41
- molecule: "O=C1OC(=O)c2c(Cl)c(Cl)c(Cl)c(Cl)c21"
  measured.endpoint: "melting point"
  units.label: "°C"
  quantitative.result: 256
- molecule: "Cc1cccc(Nc2ccccc2C(=O)O)c1C [Mefenamic acid]"
  measured.endpoint: "melting point"
  units.label: "°C"
  quantitative.result: 230
- molecule: "Cc1[nH]cnc1C=O"
  measured.endpoint: "melting point"
  units.label: "°C"
  quantitative.result: 168
- molecule: "CCCCCCCCCCSc1cc(N(NC(=O)OC(C)(C)C)C(=O)OC(C)(C)C)cc(SCCCCCCCCCC)c1SCCCCCCCCCC"
  measured.endpoint: "melting point"
  units.label: "°C"
  quantitative.result: 50.5
- molecule: "Cc1ccc(N)cc1Cl"
  measured.endpoint: "melting point"
  units.label: "°C"
  quantitative.result: 26
